molecular target: PSG G322A (PSD-95); assay: FP displacement (competition) of FITC-15 AA CRIPT by library peptide, IC50 and Ki; details: read-out: IC50 (µM), PSG G322A; FP displacement of FITC-15 AA CRIPT probe by library peptide
Ends that are not written are not given here.

- substance: "Ac-YSSPAQSVTPVQTVV [MTMR2]"
  assay-target: "PSG G322A (PSD-95)"
  IC50: "295 µM"

---

target: PSG G322A G335A (PSD-95); assay: FP displacement (competition) of FITC-15 AA CRIPT by library peptide, IC50 and Ki; conditions: read-out: IC50 (µM), PSG G322A G335A; FP displacement of FITC-15 AA CRIPT probe by PSD library peptide; protein PSG G322A G335A
Response field label takes criterion met when IC50 is strictly below 400 µM and criterion not met in all other cases.

- molecule: "CC(=O)N[C@@H](Cc1ccc(O)cc1)C(=O)N[C@@H](CCC(=O)O)C(=O)N[C@@H](CCC(=O)O)C(=O)N[C@@H](CCC(=O)O)C(=O)N[C@@H](CC(C)C)C(=O)N[C@@H](CCC(N)=O)C(=O)N[C@@H](CC(=O)O)C(=O)N[C@@H](CO)C(=O)N[C@@H](CCCNC(=N)N)C(=O)N[C@H](C(=O)N[C@@H](Cc1ccc(O)cc1)C(=O)N[C@H](C(=O)N[C@@H](CO)C(=O)N[C@@H](CO)C(=O)N[C@@H](CC(C)C)C(=O)O)C(C)C)C(C)C [CAC1C]"
  assigned-category: "criterion met"
- molecule: "CC(=O)N[C@@H](Cc1ccc(O)cc1)C(=O)N[C@@H](CC(=O)O)C(=O)N[C@@H](CO)C(=O)N[C@H](C(=O)N[C@@H](CCC(=O)O)C(=O)N[C@@H](CCC(N)=O)C(=O)N[C@@H](CO)C(=O)N[C@@H](CC(=O)O)C(=O)N[C@H](C(=O)N[C@@H](CCCNC(=N)N)C(=O)N[C@@H](Cc1ccccc1)C(=O)N[C@@H](CO)C(=O)N[C@@H](CO)C(=O)N[C@@H](C)C(=O)N[C@H](C(=O)O)C(C)C)C(C)C)[C@@H](C)O [GPER1]"
  assigned-category: "criterion met"
- molecule: "CC(=O)N[C@@H](Cc1ccc(O)cc1)C(=O)N[C@@H](CC(C)C)C(=O)N[C@@H](C)C(=O)N[C@@H](CC(=O)O)C(=O)N[C@@H](CCC(=O)O)C(=O)N[C@H](C(=O)N[C@@H](CO)C(=O)N[C@@H](C)C(=O)N[C@@H](CO)C(=O)N[C@@H](CC(C)C)C(=O)N[C@@H](C)C(=O)N[C@@H](CCCCN)C(=O)N[C@@H](CCC(N)=O)C(=O)NCC(=O)N[C@@H](CC(C)C)C(=O)O)C(C)C [TAU]"
  assigned-category: "criterion met"
- molecule: "CC(=O)N[C@@H](Cc1ccc(O)cc1)C(=O)N[C@@H](CCCNC(=N)N)C(=O)N[C@@H](CCC(N)=O)C(=O)N1CCC[C@H]1C(=O)N[C@@H](CC(C)C)C(=O)N1CCC[C@H]1C(=O)N[C@@H](CC(=O)O)C(=O)N[C@@H](CO)C(=O)N[C@@H](CC(N)=O)C(=O)N1CCC[C@H]1C(=O)N[C@@H](CCC(=O)O)C(=O)N[C@@H](CCC(=O)O)C(=O)N[C@@H](CO)C(=O)N[C@@H](CO)C(=O)N[C@H](C(=O)O)C(C)C [SEM4C]"
  assigned-category: "criterion met"
- molecule: "CC(=O)N[C@@H](Cc1ccc(O)cc1)C(=O)N[C@@H](Cc1ccc(O)cc1)C(=O)N[C@@H](CCC(=O)O)C(=O)N[C@H](C(=O)N[C@@H](CO)C(=O)N[C@@H](Cc1c[nH]cn1)C(=O)N[C@@H](Cc1ccc(O)cc1)C(=O)N1CCC[C@H]1C(=O)N[C@@H](C)C(=O)N[C@@H](CO)C(=O)N1CCC[C@H]1C(=O)N[C@@H](CC(=O)O)C(=O)N[C@@H](CO)C(=O)N[C@@H](Cc1c[nH]c2ccccc12)C(=O)N[C@H](C(=O)O)C(C)C)[C@@H](C)O [CTND2]"
  assigned-category: "criterion not met"
- molecule: "CC(=O)N[C@@H](Cc1ccc(O)cc1)C(=O)N[C@@H](CO)C(=O)N[C@@H](CO)C(=O)N[C@H](C(=O)N[C@@H](CO)C(=O)N1CCC[C@H]1C(=O)N[C@@H](CCC(N)=O)C(=O)N[C@@H](CO)C(=O)N[C@H](C(=O)N[C@@H](CC(=O)O)C(=O)N[C@@H](CCCCN)C(=O)N[C@@H](CO)C(=O)N[C@@H](CO)C(=O)N[C@H](C(=O)N[C@H](C(=O)O)C(C)C)[C@@H](C)O)[C@@H](C)O)[C@@H](C)O [SRGP2]"
  assigned-category: "criterion not met"
- molecule: "CC(=O)N[C@@H](Cc1ccc(O)cc1)C(=O)N[C@@H](Cc1ccccc1)C(=O)N[C@H](C(=O)N[C@@H](Cc1ccc(O)cc1)C(=O)N[C@@H](Cc1c[nH]cn1)C(=O)N[C@H](C(=O)N[C@@H](CO)C(=O)N[C@@H](CC(=O)O)C(=O)NCC(=O)N[C@@H](CC(=O)O)C(=O)N[C@@H](C)C(=O)N[C@@H](CC(C)C)C(=O)N[C@@H](CC(C)C)C(=O)N[C@@H](CC(C)C)C(=O)N[C@@H](CC(C)C)C(=O)O)[C@@H](C)O)[C@@H](C)O [CX3C1]"
  assigned-category: "criterion not met"
- molecule: "CC(=O)N[C@@H](Cc1ccc(O)cc1)C(=O)N1CCC[C@H]1C(=O)N[C@@H](CCC(N)=O)C(=O)N[C@@H](Cc1c[nH]cn1)C(=O)N[C@@H](CC(C)C)C(=O)N[C@@H](CCCNC(=N)N)C(=O)N[C@H](C(=O)N[C@@H](C)C(=O)N[C@@H](CO)C(=O)N[C@@H](CCCCN)C(=O)N[C@@H](CC(N)=O)C(=O)N[C@@H](CCC(=O)O)C(=O)N[C@H](C(=O)N[C@H](C(=O)N[C@H](C(=O)O)C(C)C)[C@@H](C)O)C(C)C)[C@@H](C)O [SHSA7]"
  assigned-category: "criterion not met"
- molecule: "CC[C@H](C)[C@H](NC(=O)[C@H](CCCCN)NC(=O)[C@@H]1CCCN1C(=O)[C@H](CC(C)C)NC(=O)[C@H](CCCNC(=N)N)NC(=O)[C@H](Cc1c[nH]cn1)NC(=O)[C@H](CO)NC(=O)CNC(=O)[C@H](CC(=O)O)NC(=O)[C@H](Cc1ccc(O)cc1)NC(C)=O)C(=O)N[C@@H](CCCCN)C(=O)N[C@@H](CCC(=O)O)C(=O)N[C@H](C(=O)N[C@H](C(=O)N[C@H](C(=O)O)C(C)C)[C@@H](C)O)[C@@H](C)O [FRPD4]"
  assigned-category: "criterion met"
